Data provenance is paper PMC10257182.

System: senescent A549 cells (etoposide-induced)
MEASUREMENT PROTOCOL: Nuclei count senolytic assay, therapy-induced senescence (TIS) model, senescent cells
Format: cell-based, human
CONDITION SUMMARY: Homo sapiens, A549; log (dose) [M] -7.33; Senescent cells; mean; read-out: Mean % Cell Survival
Give measured viability at 0.0468 µM for each item. Keep answers brief.
Express your answer in %, writing the number without its unit.

In: Look up viability at 0.0468 µM for this compound: Cc1c(-c2c(F)cc(C(N)=O)c3[nH]c4c(c23)CC[C@H](C(C)(C)O)C4)cccc1-n1c(=O)c2cccc(F)c2n(C)c1=O [BMS 986142]
Out: 95.4

In: Look up viability at 0.0468 µM for this compound: O=c1c(O)c(-c2ccc(O)cc2O)oc2cc(O)cc(O)c12 [Morin, morin]
Out: 54.5

In: Look up viability at 0.0468 µM for this compound: Cc1cc2c(C(C)C)c(O)c(O)c(C=O)c2c(O)c1-c1c(C)cc2c(C(C)C)c(O)c(O)c(C=O)c2c1O [Gossypol, gossypol]
Out: 69.1

====

System: non-senescent control A549 cells
MEASUREMENT PROTOCOL: Nuclei count senolytic assay, TIS model, non-senescent control cells
Type: cell-based, human
CONDITION SUMMARY: Homo sapiens, A549; log (dose) [M] -5.33; Control cells; mean; read-out: Mean % Cell Survival
Procedure: We performed a second validation of the effectiveness of our machine learning models using a different stressor. We focused on therapy-induced senescence (TIS, Supplementary Fig. 6a), where human epithelial cancerous cells (A549) were induced to become senescent by addition of etoposide. Cells were treated with 100 μM etoposide for 48 h, followed by another three days of exposure to media in standard conditions. We performed experimental validation of the compounds with z-score > 8 (Fig. 2e). […]
OBSERVABLE: viability at 4.68 µM
Please provide the amount together with its unit, number first.

In: Kindly state the measured viability at 4.68 µM obtained for COC[C@H]1C[C@@H](c2nc(-c3ccc4c(c3)COc3cc5c(ccc6nc([C@@H]7CC[C@H](C)N7C(=O)[C@@H](NC(=O)OC)C(C)C)[nH]c65)cc3-4)c[nH]2)N(C(=O)[C@H](NC(=O)OC)c2ccccc2)C1 [Velpatasvir, velpatasvir, reference compound] with non-senescent control A549 cells.
Out: 84.4%

In: Kindly state the measured viability at 4.68 µM obtained for CO[C@H]1C[C@@H]2CC[C@@H](C)[C@@](O)(O2)C(=O)C(=O)N2CCCC[C@H]2C(=O)O[C@H]([C@H](C)C[C@@H]2CC[C@@H](OP(C)(C)=O)[C@H](OC)C2)CC(=O)[C@H](C)/C=C(\C)[C@@H](O)[C@@H](OC)C(=O)[C@H](C)C[C@H](C)/C=C/C=C/C=C/1C [Ridaforolimus, ridaforolimus, reference compound] with non-senescent control A549 cells.
Out: 121%

In: Kindly state the measured viability at 4.68 µM obtained for CO[C@H]1C[C@@H]2CC[C@@H](C)[C@@](O)(O2)C(=O)C(=O)N2CCCC[C@H]2C(=O)O[C@H]([C@H](C)C[C@@H]2CC[C@@H](OCCO)[C@H](OC)C2)CC(=O)[C@H](C)/C=C(\C)[C@@H](O)[C@@H](OC)C(=O)[C@H](C)C[C@H](C)/C=C/C=C/C=C/1C [Everolimus, everolimus, reference compound] with non-senescent control A549 cells.
Out: 103%
